Measured Relative EC50, listed per entry for reference.
Molecular target: T1, human CCR8 (human, UniProt P51685 1-355)
T1 construct: the assay field says which; also called hCCR8; huCCR8
Test: flow cytometry, CHO-huCCR8.Gna15 cells, relative to rb.Ab5
Provide the reading as a plain figure in ratio.

These solved cases illustrate the format of a correct answer.
binder	unitDescriptor	Relative EC50
hu.Ab5.H4L1 (antibody, human IgG1, kappa, V domains shown) VH: EQQLLESGGGLVQPGGSLRLSCAVSGIDLSTYAMGWVRQAPGKGLEWVGLIHRSGRTYYATWAKGRFTISKDSSKTTVYLQMNSLRAEDTAVYFCTRSYPDYSATASIWGPGTTVTVSS VL: DIQVTQSPSSLSASVGDRVTITCQASENIANALAWYQQKPGKPPKFLIYGASNLASGVPSRFSGSGSGTDFTFTISSLQPEDIATYYCQQAYYGNSFVEGTFGGGTKVEIKR	ratio	1.5
hu.Ab5.H7L1 (antibody, human IgG1, kappa, V domains shown) VH: EQQLLESGGGLVQPGGSLRLSCAVSGIDLSTYAMGWVRQAPGKGLEWIGLIHRSGRTYYATWAKGRFTISKDNSKTTVYLQMNSLRAEDTAVYFCTRSYPDYSATASIWGPGTTVTVSS VL: DIQVTQSPSSLSASVGDRVTITCQASENIANALAWYQQKPGKPPKFLIYGASNLASGVPSRFSGSGSGTDFTFTISSLQPEDIATYYCQQAYYGNSFVEGTFGGGTKVEIKR	ratio	2.2
hu.Ab5.H5L1 (antibody, human IgG1, kappa, V domains shown) VH: EQQLLESGGGLVQPGGSLRLSCAVSGIDLSTYAMGWVRQAPGKGLEWISLIHRSGRTYYATWAKGRFTISKDSSKTTVYLQMNSLRAEDTAVYFCTRSYPDYSATASIWGPGTTVTVSS VL: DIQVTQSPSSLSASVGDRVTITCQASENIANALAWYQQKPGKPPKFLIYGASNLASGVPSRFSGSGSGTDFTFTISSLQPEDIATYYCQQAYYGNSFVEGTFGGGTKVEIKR	ratio	7.6

Now turn to the next binder.
-- ask Which Relative EC50 reading was recorded for the binder hu.Ab5.H12L1 (antibody, human IgG1, kappa, V domains shown) VH: EVQLLESGGGLVQPGGSLRLSCAASGIDLSTYAMGWVRQAPGKGLEWVSLIHRSGRTYYATWAKGRFTISRDNSKNTLYLQMNSLRAEDTAVYYCTRSYPDYSATASIWGQGTTVTVSS VL: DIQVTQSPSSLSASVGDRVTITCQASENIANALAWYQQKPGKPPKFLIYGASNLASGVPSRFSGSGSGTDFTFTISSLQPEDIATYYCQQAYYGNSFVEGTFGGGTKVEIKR ?
-- reply 2.3
